Tgt: T1, GFP-9S library array, motif 4 ND N98I;D124P (synthetic construct, N98I;D124P)
T1 chain: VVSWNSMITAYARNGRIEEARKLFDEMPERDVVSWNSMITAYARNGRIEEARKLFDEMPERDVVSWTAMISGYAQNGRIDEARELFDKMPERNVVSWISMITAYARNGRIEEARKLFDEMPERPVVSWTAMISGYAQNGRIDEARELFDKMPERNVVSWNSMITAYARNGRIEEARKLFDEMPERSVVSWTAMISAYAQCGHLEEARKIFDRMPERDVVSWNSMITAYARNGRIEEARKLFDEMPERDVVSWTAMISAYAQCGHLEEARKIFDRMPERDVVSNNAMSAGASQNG
Procedure Summary: high-throughput RNA pulldown from lysate on Ni-NTA beads; HRP: 50 mM Tris pH 8, 150 mM NaCl, 1 mM beta-mercaptoethanol, 50 ug/ml BSA, 3 ug/ml yeast RNA, 0.5% heparin; ITC and FP: Tris pH 8, 200 mM KCl, 5% glycerol; MST: 50 mM Tris pH 8, 200 mM NaCl, 1 mM DTT, BSA, heparin, 0.05% Tween 20
Recorded Conditions: tags: N-terminal His-eGFP; label: 5' Cy5
Observed Property: Kd (nM)
Write the answer as a number in nM, unit excluded.

Reported Kd for AUUACACGUGA (ssRNA) [Cy5-rpoA] was 132

Reported Kd for AUUAGACGUGA (ssRNA) [Cy5-rpoA-G] was 112

From: paper PMC8809517
